Reference source: PubChem BioAssay

experiment: inhibitors of PAF-induced NFkB signaling in CF airway cells, dose response, cell-based, uHTS hits, panel, cytotoxicity readout (AID 624344); details: CF bronchial epithelial cells, PAF-induced NFkB reporter inhibition, with PAF, run 1; at 79 µM (top of the series) unless noted
QUANTITY MEASURED: inhibition (%)
Report the value in % with no unit label.

Below, each entry is followed by its recorded inhibition result.
O=C(/C=C/c1cccs1)Nc1cccc(NC(=O)/C=C/c2cccs2)n1	97.2
Nc1nc(/C=C/c2cccnc2)nc(-c2ccccc2O)n1	100

Let's switch to this compound now.
Query block: Report inhibition for COc1cccc(NC(=O)Nc2nnc(CC(=O)NCc3ccccc3)s2)c1 please.
Result block: 79.8

###

Recorded measurements of activity, one per entry
target: Tumor necrosis factor receptor superfamily member 10B (Homo sapiens); experiment: caspase-8 TRAIL sensitization, hit retest, confirmation, cell-based, NB7+caspase-8, with/without TRAIL, luminescence panel (AID 651596); conditions: NB7 neuroblastoma + caspase-8, TRAIL sensitization, luminescence viability, with TRAIL, mean of runs, at 10 µM, stronger effect = higher value
Report the value in % with no unit label.

Below, each entry is followed by its recorded activity result.
O=C(Nc1ccc(N2CCOCC2)cc1)c1cnsn1	78.7
CCOC(=O)c1sc(NC(=O)c2ccccc2)cc1C	59.1
COc1ccc(-c2cc3ccc(OCc4nn[nH]n4)cc3oc2=O)cc1	58.8

Query block: Report activity for O=C(CC(Nc1ccc(F)cc1)C(=O)O)c1ccccc1 (centres undefined) please.
Result block: 63.3

Query block: Report activity for COc1ccc(C(=O)Nc2cccc(/C=C/c3nc4ccccc4c(=O)[nH]3)c2)cc1 please.
Result block: 73.5

Query block: Report activity for Cc1ccc(-c2nc(-c3ccccn3)no2)cc1 please.
Result block: 96.8

Query block: Report activity for COC(=O)c1nn(-c2ccc3c(c2)CCN3C(C)=O)cc1O please.
Result block: 86.6

Query block: Report activity for OC(c1cc(-c2cccc(Cl)c2)nc2ccccc12)C1CCCCN1 (centres undefined) please.
Result block: 71.2

Query block: Report activity for CC(C)Cc1nc2oc3c(Cl)ncnc3c2c2c1CCCC2 please.
Result block: 55.5

###

target: Tumor necrosis factor receptor superfamily member 10B (Homo sapiens) (UniProt O14763); experiment: caspase-8 TRAIL sensitization, hit retest, confirmation, cell-based, NB7+caspase-8, with/without TRAIL, luminescence panel (AID 651596); conditions: NB7 neuroblastoma + caspase-8, TRAIL sensitization, luminescence viability, with TRAIL, mean of runs, at 10 µM, stronger effect = higher value
Sequence (O14763 whole entry, looked up): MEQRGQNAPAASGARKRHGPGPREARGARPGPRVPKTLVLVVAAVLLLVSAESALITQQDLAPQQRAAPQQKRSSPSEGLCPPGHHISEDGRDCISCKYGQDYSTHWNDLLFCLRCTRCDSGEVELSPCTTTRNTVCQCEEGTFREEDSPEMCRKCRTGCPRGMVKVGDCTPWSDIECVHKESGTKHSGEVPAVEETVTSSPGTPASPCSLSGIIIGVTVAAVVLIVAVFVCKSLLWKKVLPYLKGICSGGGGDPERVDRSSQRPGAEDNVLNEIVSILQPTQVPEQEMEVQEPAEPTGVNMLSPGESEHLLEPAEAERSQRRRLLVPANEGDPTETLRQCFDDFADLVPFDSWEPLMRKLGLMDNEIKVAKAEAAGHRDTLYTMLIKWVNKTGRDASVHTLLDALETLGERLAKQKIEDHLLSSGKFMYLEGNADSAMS
Recorded measurements of activity, one per entry
Report the value in % with no unit label.

Below, each entry is followed by its recorded activity result.
C/C(=N\NC(=O)c1cc(O)ccc1O)c1cccc(NC(=O)c2ccc(Cl)cc2)c1	40.8
COc1ccc(C=C2OC(=O)C(C(C)=O)=C2O)cc1	90.4
O=C(NCCc1ccccc1)c1ccc2c(c1)OCCO2	89.7
OCC1OC(n2ccc3c(NO)ncnc32)C(O)C1O (stereo not drawn)	98.8
CCN1CCCC1CNC(=O)c1ccc2c(c1)NC(=O)/C(=C\c1ccc(C)cc1)S2 (stereo not drawn)	89.7
CC(C)(C)c1ccc(C(=O)O/N=C(\N)Cc2cccs2)cc1	98.6
C=CCOc1cccc(/C=C/c2nc3ccccc3c(=O)[nH]2)c1	66.8
CN(C)c1ccc(Nc2nc(N)c3ccccc3n2)cc1	95.9

Query block: Report activity for O=C(NCCOc1ccccc1)c1cccc2c1C(=O)c1ccc(Cl)cc1S2(=O)=O please.
Result block: 35.6

Query block: Report activity for C#Cc1ccc(NC(=O)C2(C)CCN2C(=O)c2ccccc2CCc2ccccc2)cc1 (stereo not drawn) please.
Result block: 91.2

Query block: Report activity for c1csc(-c2nnc(-c3ccc(N4CCOCC4)cc3)o2)c1 please.
Result block: 56.9

Query block: Report activity for CN(C)c1ccc(-c2nc3ccccc3c(=O)[nH]2)cc1 please.
Result block: 91.9

Query block: Report activity for O=C(CSc1nnc(-c2ccc(Br)cc2)o1)Nc1cccc(C(=O)O)c1 please.
Result block: 60.1

###

Recorded measurements of inhibition, one per entry
experiment: inhibitors of PAF-induced NFkB signaling in CF airway cells, dose response, cell-based, uHTS hits, panel, cytotoxicity readout (AID 624344); details: CF bronchial epithelial cells, PAF-induced NFkB reporter inhibition, with PAF, run 1; at 79 µM (top of the series) unless noted
Report the value in % with no unit label.

COc1cc(-c2cc(C(=O)Nc3ccc(S(=O)(=O)NCc4ccco4)cc3)c3ccccc3n2)cc(OC)c1OC	109
c1ccc2c(c1)Nc1ccncc1S2	114
O=C1CC(=O)OC(c2ccc([N+](=O)[O-])cc2)O1	101
CCOc1ccc(NCc2cc3c(C(C)(C)C)nn(-c4ccccc4)c3[nH]c2=O)cc1	101
COc1cc(CN(C)c2ccc(S(=O)(=O)N3CCCC3)cn2)ccc1OC(F)F	82.4

Let's switch to this compound now.
Query block: Report inhibition for Cc1ccc(CCC(=O)Nc2ncc(Cc3cc(Cl)ccc3Cl)s2)o1 please.
Result block: 101

###

target: Tumor necrosis factor receptor superfamily member 10B (Homo sapiens) (UniProt O14763); assay: caspase-8 TRAIL sensitization, hit retest, confirmation, cell-based, NB7+caspase-8, with/without TRAIL, luminescence panel (AID 651596); settings: NB7 neuroblastoma + caspase-8, TRAIL sensitization, luminescence viability, with TRAIL, mean of runs, at 10 µM, stronger effect = higher value
I'd appreciate it if you marked entries MET when activity is lower than 70% and NOT MET when it is not.

# example entries with known answers
O=C(/C=C/NNC(=O)c1ccccc1)c1ccc([N+](=O)[O-])cc1	MET
Cc1nc(NCC2CCCO2)nc2c1C(=O)CC(C)C2 (stereo not given)	MET
C=C1CC(COc2ccc3c(C)c(Cl)c(=O)oc3c2)(c2ccccc2)OC1=O (stereo not given)	NOT MET

Lab note: next compound to report on.
Query block: # strict comparison: is reported activity < 70%? input = CC(=O)Nc1sc(C)c(C)c1C(=O)OCC(=O)N(CC(C)C)c1c(N)n(Cc2ccccc2)c(=O)[nH]c1=O
Result block: NOT MET

###

Recorded measurements of inhibition, one per entry
biological target: PEG-3 (UniProt Q6IN02); test: Peg3 promoter luciferase inhibitors, potency, dose response, cell-based, HeLa, CREF/GAPDH counter-screen panel (AID 624167); settings: CREF/GAPDH counter-screens; HeLa PEG-Prom luciferase reporter, overnight, run 2, dose range 1, at 100 µM (top of the series) unless noted
Sequence (Q6IN02 whole entry, looked up): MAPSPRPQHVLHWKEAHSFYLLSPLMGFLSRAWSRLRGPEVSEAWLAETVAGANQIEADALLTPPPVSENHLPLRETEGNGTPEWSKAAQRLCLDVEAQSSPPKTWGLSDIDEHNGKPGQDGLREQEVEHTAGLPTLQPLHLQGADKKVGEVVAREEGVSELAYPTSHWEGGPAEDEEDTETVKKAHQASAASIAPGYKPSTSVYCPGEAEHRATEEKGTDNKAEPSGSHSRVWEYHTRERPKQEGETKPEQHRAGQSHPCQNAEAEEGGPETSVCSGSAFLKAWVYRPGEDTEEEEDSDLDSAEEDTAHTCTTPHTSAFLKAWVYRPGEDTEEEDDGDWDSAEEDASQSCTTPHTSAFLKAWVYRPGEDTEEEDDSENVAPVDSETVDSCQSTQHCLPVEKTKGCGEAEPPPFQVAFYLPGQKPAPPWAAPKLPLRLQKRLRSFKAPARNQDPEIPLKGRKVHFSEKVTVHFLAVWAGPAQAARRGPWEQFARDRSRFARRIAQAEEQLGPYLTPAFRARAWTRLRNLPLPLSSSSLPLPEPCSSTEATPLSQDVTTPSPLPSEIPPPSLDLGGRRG

Below, each entry is followed by its recorded inhibition result.
O=C(N/N=C\c1c(O)ccc2ccccc12)c1cncc(Br)c1	79.4%
CCc1nc(Sc2nnnn2-c2ccccc2)c2c3c(sc2n1)CCCC3	91.8%
CCCN(CC(=O)Nc1ccccc1C)C(=O)CCl	98.7%
CCN(CC)CCSc1nnc2c3cc(C)ccc3n(Cc3ccccc3)c2n1	99.8%

Let's switch to this compound now.
Query block: Report inhibition for COc1ccc2sc(-c3ccc(S(C)(=O)=O)cc3)c(C#Cc3cncn3C)c2c1 please.
Result block: 60.8% [run 2, dose range 1, at 50 µM]

###

Recorded measurements of activity, one per entry
assay: caspase-8 TRAIL sensitization, hit retest, confirmation, cell-based, NB7+caspase-8, with/without TRAIL, luminescence panel (AID 651596); conditions: NB7 neuroblastoma + caspase-8, without TRAIL, luminescence viability, without TRAIL, mean of runs, at 10 µM
Report the value in % with no unit label.

Below, each entry is followed by its recorded activity result.
COn1c(SCc2ccccc2)nc2ccccc2c1=O	59.9
Cc1ccc(-c2nc(-c3ccccn3)no2)cc1[N+](=O)[O-]	55
C/C(Cn1nnc([N+](=O)[O-])n1)=N\NC(=O)c1ccc(O)cc1	48.3
NC(c1csc(NC(=O)Nc2ccc(OC(F)(F)F)cc2)n1)C1CCCCC1 (stereo unspecified)	92.2
Cc1cc(C(=O)COC(=O)c2ccccc2O)c(C)n1CC1CCCO1 (stereo unspecified)	88.9
COc1cc(NC(=O)c2c(F)c(F)c(F)c(F)c2F)c(OC)cc1Cl	64.5
CN(C)c1ccc(Sc2ccc3nc(N)nc(N)c3c2)cc1	73
O=C(/C=C/c1ccco1)Nc1ccc2c(c1)OCCO2	65.1
O=C(Nc1ccccc1)c1cn2ccccc2n1	55.7
C(=Cc1cnc2ccccc2n1)c1ccc2c(c1)OCO2	92.6

Query block: Report activity for COc1ccc(Cn2c(SCc3ccccc3C)nc3cc(OC)c(OC)cc3c2=N)cc1 please.
Result block: 90.9

Query block: Report activity for COc1cccc2c1C(CO)N1C(C#N)C3CC(C(=O)O)C(C1C2)N3C (stereo unspecified) please.
Result block: 83.8

Query block: Report activity for Cc1nc2cc(NC(=O)Nc3nccs3)ccc2n1C please.
Result block: 60.8

###

target: PEG-3 (UniProt Q6IN02); assay: Peg3 promoter luciferase inhibitors, potency, dose response, cell-based, HeLa, CREF/GAPDH counter-screen panel (AID 624167); conditions: CREF/GAPDH counter-screens; HeLa PEG-Prom luciferase reporter, overnight, run 1, dose range 1, at 100 µM (top of the series) unless noted
QUANTITY MEASURED: inhibition (%)
Report the value in % with no unit label.

Below, each entry is followed by its recorded inhibition result.
Fc1ccc([C@@H]2CCNC[C@H]2COc2ccc3c(c2)OCO3)cc1	102
COc1ccc(S(=O)(=O)N2c3ccccc3OCC2c2ccccc2)cc1 (stereo not given)	-135
C(=N\Nc1ccc2ccccc2n1)/c1ccc2c(c1)OCCO2	98.4

Let's switch to this molecule now.
Query block: Report inhibition for CC(=O)OCCNc1cc(SCc2ccco2)c2nonc2c1[N+](=O)[O-] please.
Result block: 100
